# test: Drug level in baboon plasma assessed as unmetabolized fractions after 30 mins
# Type: ADME, cell-free
# details: papio hamadryas, read-out: Activity
readout: remaining at 0.5 h

Returns the measured remaining at 0.5 h for the input molecule. Input: `Cc1ccc(-c2cc(C(F)(F)[18F])nn2-c2ccc(S(N)(=O)=O)cc2)cc1`
30.2%

Measured values drawn from ChEMBL document CHEMBL1146341 for this set.
